# measurementNotes: beta-lactam sensitization of Mtb H37Rv, H37Rv (AID 434955);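 also: growth measured after seven days incubation then overnight dye step; 0% = bacteria only wells and 100% = bacteria with antibiotic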
# settings: M. tuberculosis H37Rv growth with meropenem, percent inhibition; measured here: primary screen without meropenem; at 25 µM
Among all 330,000 compounds or so, about 880 (0.27%) were called active. Inconclusive results (about 1%) are left out. The list is a sample of the results.
endpointLabel: inhibition (%)

INSERT INTO assay_data (molecule, unittext, endpointvalue) VALUES
  ('COc1ccc(N2CCN(C(=O)CCNC(=O)c3ccc(Br)cc3)CC2)cc1', '%', -3.75),
  ('Brc1ccc(Nc2c3c(nc4ncnn24)CCC3)cc1', '%', -2.17),
  ('O=C(NC(Cc1ccccc1)C(=O)O)/C(=C\c1ccccc1)NC(=O)c1ccco1 (centres undefined)', '%', -12.5),
  ('CCC(C)N(C(=O)COC(=O)c1nc(Cl)ccc1Cl)C1CCS(=O)(=O)C1 (centres undefined)', '%', -10.3),
  ('CSc1sc(C(=O)NNC(=O)c2ccc(Cl)cc2)c2c1C=CCC2', '%', 4.57),
  ('CN(CC(=O)Nc1ccc(S(=O)(=O)N2CCCC2)cc1)Cc1ccc(Cl)c(Cl)c1', '%', 0.57),
  ('Cc1c(NC(=O)C(C)OC(=O)c2cc3c4ccccc4n(C)c3s2)c(=O)n(-c2ccccc2)n1C (centres undefined)', '%', 3.63),
  ('Cc1ccc(C(=O)N2CCC(n3nccc3NC(=O)Nc3cccc(F)c3)CC2)cn1', '%', -4.97),
  ('NC(=O)C1CCN(C(=O)/C(=C/c2ccco2)NC(=O)c2ccccc2)CC1', '%', -8.97),
  ('CN1CCc2nc(SC(C(=O)O)c3ccccc3)c(C#N)c(-c3cccs3)c2C1 (centres undefined)', '%', -0.72),
  ('CC(=O)NC1(c2ccc(F)cc2)CCN(C(=O)c2c(F)cccc2F)CC1', '%', 0.61),
  ('CCCCC1(C(=O)OCC)NC(c2ccc(O)cc2)C2C(=O)N(c3ccccc3)C(=O)C21 (centres undefined)', '%', -0.56),
  ('C/C=C(\C)C(=O)NCCN1C2=NC[C@H](Cc3ccc(O)cc3)N2C[C@@H]1Cc1ccc(OC)cc1', '%', -6),
  ('CC(Nc1nc(C(F)(F)F)nc2ccccc12)c1cccs1 (centres undefined)', '%', 8.98),
  ('O=C(CCCNS(=O)(=O)c1cccc2nsnc12)NCCN1CCN(c2ccccc2F)CC1', '%', -10.3),
  ('CCCCC(C(=O)NC(C)(C)C)N(Cc1ccccc1)C(=O)c1snc(C(N)=O)c1N (centres undefined)', '%', 4.81),
  ('CCOC(=O)c1cn[nH]c1NC(=S)Nc1ccccc1', '%', -3.62),
  ('COc1ccccc1CCCNC(=O)C1CCC(=O)N(CCN2CCOCC2)C1 (centres undefined)', '%', -9.27),
  ('O=C1CC2(CC(c3ccc(Cl)cc3)=NO2)C(=O)N1c1ccccc1 (centres undefined)', '%', -1.92);

----------
# measurementNotes: beta-lactam sensitization of Mtb H37Rv, H37Rv (AID 434955);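 also: growth measured after seven days incubation then overnight dye step; 0% = bacteria only wells and 100% = bacteria with antibiotic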
# settings: M. tuberculosis H37Rv growth with meropenem, percent inhibition; at 25 µM; stronger effect = higher value
Hit rate of the full screen: of about 330,000 compounds, about 880 (0.27%) were called active. About 1% were inconclusive and are not listed. Not all results are given here.
Measured inhibition accompanies every entry in the list below.
endpointLabel: inhibition (%)

INSERT INTO results (compound, endpointvalue) VALUES
  ('CN1CCN(NC(=O)Nc2ccc(Br)cc2)CC1', 5.75),
  ('O=C(NC(=S)N1CCN(Cc2ccccc2)CC1)c1ccccc1', 36.8),
  ('CC(NC(=S)NC1CCCCC1)C(c1ccccc1)N1CCOCC1 (centres undefined)', -1.18),
  ('COc1ccc(C(=O)NC(C)Cn2nc(C)cc2C)cc1OC1CCN(C(C)=O)CC1 (centres undefined)', -1.95);

----------
# measurementNotes: beta-lactam sensitization of Mtb H37Rv, H37Rv (AID 434955);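 also: growth measured after seven days incubation then overnight dye step; 0% = bacteria only wells and 100% = bacteria with antibiotic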
# settings: M. tuberculosis H37Rv growth with meropenem, percent inhibition; at 25 µM; stronger effect = higher value
The whole screen tested about 330,000 compounds, of which about 880 (0.27%) were called active. Another 1% or so got no clear call; they are omitted. Not all results are given here.
endpointLabel: inhibition (%)

INSERT INTO assay_data (compound, endpointlabel, unittext, endpointvalue) VALUES
  ('COc1ccc(/C=N/n2c(C)cc(C)cc2=O)cc1', 'inhibition', '%', 3.19),
  ('CCOc1ccc(NC(=O)C(C)N2C(=O)c3ccccc3C2=O)cc1 (stereo unspecified)', 'inhibition', '%', -0.05),
  ('CC(=O)NC1(c2ccc(F)cc2)CCN(C(=O)c2c(F)cccc2F)CC1', 'inhibition', '%', 8.64),
  ('CC(=O)OCCC(C)C', 'inhibition', '%', -5.13),
  ('O=C(NC(Cc1ccccc1)C(=O)O)/C(=C\c1ccccc1)NC(=O)c1ccco1 (stereo unspecified)', 'inhibition', '%', -13.2),
  ('O=C(CCCNS(=O)(=O)c1cccc2nsnc12)NCCN1CCN(c2ccccc2F)CC1', 'inhibition', '%', -11.3);
